assaySystem: Prostaglandin D2 receptor 2 (Homo sapiens)
assayOverview: Displacement of [3H]PGD2 from human CRTH2 receptor expressed in HEK293 cells by scintillation counting in presence of 0.5% BSA
Assay type: cell-based
pIC50: −log10 of the molar value.
observationType: pIC50

| compound | pIC50 |
| --- | --- |
| CCCc1nc(-c2ccc(Oc3ccc(CC(=O)O)cc3OC)c(NS(=O)(=O)c3ccc(Cl)cc3Cl)c2)c[nH]1 | 8.70 |
| CCCCNC(=O)c1ccc(Oc2ccc(CC(=O)O)cn2)c(NS(=O)(=O)c2ccc(Cl)cc2Cl)c1 | 6.51 |
| CCc1noc(-c2ccc(Oc3ccc(CC(=O)O)cc3OC)c(NS(=O)(=O)c3ccc(Cl)cc3Cl)c2)n1 | 6.11 |
| CCCCNC(=O)c1ccc(Cc2ccc(CC(=O)O)cc2OC)c(NS(=O)(=O)c2ccc(Cl)cc2Cl)c1 | 8.70 |

a. CCCCNC(=O)c1ccc([S+]([O-])c2ccc(CC(=O)O)cc2)c(NS(=O)(=O)c2ccc(Cl)cc2Cl)c1 (stereo not drawn)
b. CCCCNC(=O)c1ccc(Sc2ccc(CC(=O)O)cc2)c(NS(=O)(=O)c2ccc(Cl)cc2Cl)c1
c. CCCCNC(=O)c1ccc(Oc2ccc3c(CC(=O)O)c[nH]c3c2)c(NS(=O)(=O)c2ccc(Cl)cc2Cl)c1
d. CCCCNC(=O)c1ccc(S(=O)(=O)c2ccc(CC(=O)O)cc2)c(NS(=O)(=O)c2ccc(Cl)cc2Cl)c1
Sequence the entries by pIC50, beginning with the highest number. Answer by writing out the labels in the requested order.
c, b, d, a
(c: 8.52, b: 7.68, d: 6.40, a: 6.18)

====

assaySystem: Prostaglandin D2 receptor 2 (Homo sapiens)
Sequence (Q9Y5Y4 whole entry): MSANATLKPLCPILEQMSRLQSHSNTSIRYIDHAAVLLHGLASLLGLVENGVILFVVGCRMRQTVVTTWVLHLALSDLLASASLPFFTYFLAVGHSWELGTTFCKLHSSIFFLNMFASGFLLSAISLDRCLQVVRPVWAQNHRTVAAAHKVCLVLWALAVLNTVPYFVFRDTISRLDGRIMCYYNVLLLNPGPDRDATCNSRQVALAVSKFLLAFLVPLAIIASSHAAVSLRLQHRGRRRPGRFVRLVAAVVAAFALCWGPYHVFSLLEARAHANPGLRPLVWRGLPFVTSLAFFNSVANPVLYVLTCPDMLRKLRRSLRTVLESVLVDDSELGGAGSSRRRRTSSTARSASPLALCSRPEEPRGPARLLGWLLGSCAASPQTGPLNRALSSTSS
assayOverview: Displacement of [3H]PGD2 from human CRTH2 receptor expressed in HEK293 cells by scintillation counting in presence of 0.5% BSA
Type: cell-based
pIC50: −log10 of the molar value.
observationType: pIC50

Answered examples (3):
| compound | pIC50 |
| --- | --- |
| CCc1nc(-c2ccc(Oc3ccc(CC(=O)O)cc3OC)c(NS(=O)(=O)c3ccc(Cl)cc3Cl)c2)n[nH]1 | 8.22 |
| CCCc1cc(-c2ccc(Oc3ccc(CC(=O)O)cc3OC)c(NS(=O)(=O)c3ccc(Cl)cc3Cl)c2)n[nH]1 | 8.70 |
| CCCCNC(=O)c1ccc(Oc2ccc3c(CC(=O)O)coc3c2)c(NS(=O)(=O)c2ccc(Cl)cc2Cl)c1 | 8.30 |

1. CCCCNC(=O)c1ccc(Oc2ccc3c(c2)OCC3CC(=O)O)c(NS(=O)(=O)c2ccc(Cl)cc2Cl)c1 (configuration not stated)
2. CCCCNC(=O)c1ccc(Oc2ccc(CC(=O)O)nc2)c(NS(=O)(=O)c2ccc(Cl)cc2Cl)c1
3. CCCCNC(=O)c1ccc(Oc2ccc3c(ccn3CC(=O)O)c2)c(NS(=O)(=O)c2ccc(Cl)cc2Cl)c1
4. CCCc1nc(-c2ccc(Oc3ccc(CC(=O)O)cc3OC)c(NS(=O)(=O)c3ccc(Cl)cc3Cl)c2)n[nH]1
Please give the order of these compounds when sorted by pIC50, largest value leading. Answer format: the labels, ordered as requested.
3, 4, 2, 1
